tested on: Sam68 (KHDRBS1); test: Sam68 small-molecule binders, primary screen, biochemical, small-molecule microarray, 635 nm fluorescence (AID 1125); settings: small-molecule microarray binding, higher = more signal;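 note: score merges 667 nm channel intensity with signal to noise over triplicate slides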
// reported composite z-score per item

// known answers, use as guide
CCOC(=O)CCN1C(=O)[C@H]2[C@H]3[C@H](O)[C@H](O)CC(=NO[C@@H]4O[C@H](CO)[C@@H](O)[C@H](O)[C@H]4O)[C@@H]3CC[C@H]2C1=O
1.3
CCOC(=O)[C@H](Cc1ccccc1)NC(=O)CCC1CC(OC(=O)NCCc2ccc(F)cc2)CC2(CCCC(COC(=O)NCc3cccc(C(F)(F)F)c3)O2)O1 (some centres undefined)
1.3

# query: composite z-score of entry COC(=O)[C@@H]1CC[C@H](C)[C@@H](c2ccc(Br)cc2)N1
-1.39

Please do the same for CCN1C(=O)[C@H]2[C@H]3[C@H](O)[C@H](O)CC(=NOC[C@@H](O)COCc4ccco4)[C@H]3CC[C@H]2C1=O as well.
0.971
